The measurements presented in this section are drawn from ChEMBL document CHEMBL1811859.

Items are presented alongside their recorded MIC.
- System: Enterococcus faecium
- protocol-text: Antimicrobial activity against Enterococcus faecium ATCC 19434 by broth dilution method
- Assay type: functional

{"smiles-entry": "N#Cc1ccc(COc2ccc3cc(S(=O)(=O)Nc4ccc(C(=O)O)cc4C(=O)O)ccc3c2)c(F)c1", "MIC": "> 512 µg/mL"}
{"smiles-entry": "CCCCOc1ccc2cc(S(=O)(=O)Nc3cc(C(=O)O)cc(C(=O)O)c3)ccc2c1", "MIC": "> 512 µg/mL"}
{"smiles-entry": "N#Cc1ccc(COc2ccc3cc(S(=O)(=O)Nc4ccc(CC(=O)O)cc4)ccc3c2)c(F)c1", "MIC": "> 512 µg/mL"}
